- experiment_summary: Aqueous solubility of the compound at >10 uM
- Assay type: physicochemical
- particulars: buffer
assay_endpoint: solubility

CCCCCCCCCCCCCCCCOc1ccc(C(=O)O)cc1    Insoluble
CCCCCCCCCCCCCCCCCC1=NCCN1CS(=O)(=O)O    Insoluble
Cc1cc(-c2ccc(/N=N/c3c(S(=O)(=O)O)cc4cc(S(=O)(=O)O)cc(N)c4c3O)c(C)c2)ccc1/N=N/c1ccc2c(S(=O)(=O)O)ccc(N)c2c1O    Insoluble
